# measurement_target: T1, human IL-2Rβ (CD122 protein, Fc Tag) (27-239) (human, UniProt P14784 27-239)
# T1 construct: range 27-239; Bought protein; also called hu-IL-2Rβ subunit; IL-2Rβ subunit; not shown: Fc tag of the bought protein
# T1 sequence (looked up): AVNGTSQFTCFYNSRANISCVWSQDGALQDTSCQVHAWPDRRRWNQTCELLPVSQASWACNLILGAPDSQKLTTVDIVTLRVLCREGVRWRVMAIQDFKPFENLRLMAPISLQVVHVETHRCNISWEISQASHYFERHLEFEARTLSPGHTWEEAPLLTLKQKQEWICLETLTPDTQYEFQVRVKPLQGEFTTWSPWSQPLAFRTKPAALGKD
# assay: competitive binding ELISA (Example 28)
pIC50: −log10 of the molar value.
We begin with a simple list: items and their reported pIC50.

{"binder": "YDCRIAQVGELCDL (Used as synthetic peptide and as phage clone; also called family 1) [IL-2Rβ ligand SEQ ID NO: 58]", "pIC50": "> 5.00"}
{"binder": "CGMAIGDLCMWT (Used as phage clone; also called family 2C) [IL-2Rβ ligand SEQ ID NO: 1034]", "pIC50": "> 5.00"}
{"binder": "RSCYYKRPRLWCSE (Used as synthetic peptide and as phage clone; also called family 4) [IL-2Rβ ligand SEQ ID NO: 1044]", "pIC50": "> 5.00"}
{"binder": "NMCLVGDYWPSCQI (also called family 2A) [IL-2Rβ ligand SEQ ID NO: 169]", "pIC50": "> 5.00"}
{"binder": "RWGDVGDLLMPL (also called family 2C) [IL-2Rβ ligand SEQ ID NO: 1042]", "pIC50": "> 5.00"}
{"binder": "QICDVGQWWPDCQV (Used as phage clone; also called family 2A) [IL-2Rβ ligand SEQ ID NO: 170]", "pIC50": "> 5.00"}
